target: GLUT1 (Homo sapiens); assay: Indirect measurement of GLUT1 activity by quantification of intracellular ATP levels (glucose induced ATP increase); format: cell-based; design: endogenous in cells; host or cells: DLD1 or CHO-K1; details: read-out: IC50 regarding glucose induced ATP increase (GLUT1 inhibition)
Sequence (P11166 whole entry, species assumed): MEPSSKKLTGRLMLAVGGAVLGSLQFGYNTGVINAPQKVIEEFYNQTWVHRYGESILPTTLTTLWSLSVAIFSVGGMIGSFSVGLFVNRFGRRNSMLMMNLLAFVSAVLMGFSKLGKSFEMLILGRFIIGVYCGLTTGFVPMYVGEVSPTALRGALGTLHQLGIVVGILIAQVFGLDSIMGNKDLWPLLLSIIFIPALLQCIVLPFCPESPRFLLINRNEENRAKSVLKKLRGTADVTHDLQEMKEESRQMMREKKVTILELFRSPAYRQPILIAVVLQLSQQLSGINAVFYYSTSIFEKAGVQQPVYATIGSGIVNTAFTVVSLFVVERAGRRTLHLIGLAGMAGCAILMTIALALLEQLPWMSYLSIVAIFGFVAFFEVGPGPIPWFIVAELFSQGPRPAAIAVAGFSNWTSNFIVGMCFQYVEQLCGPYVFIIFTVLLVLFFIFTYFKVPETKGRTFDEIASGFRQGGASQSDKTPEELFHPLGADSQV
quantity-name: IC50 (nM)
Report only the number, with the unit nM understood.

COc1cc(C(=O)Nc2c(C)nn(Cc3cccc(F)c3)c2C)c2ccccc2n1 [Example 87]	267
Cc1ccc2nc(C)cc(C(=O)Nc3c(C)nn(Cc4cccc(F)c4)c3C)c2c1 [Example 1236]	1290
Cc1nn(Cc2ccc(C(=O)N3CCCC3)cc2)c(C)c1NC(=O)c1cc(C(F)(F)F)nc2ccc(Br)cc12 [Example 1033]	4.2
Cc1nn(Cc2ccc(F)cc2)c(C)c1NC(=O)c1cc(Br)nc2ccccc12 [Example 36]	88.9

Consider the molecule Cc1nn(Cc2ccc(O)cc2)c(C)c1NC(=O)c1cc(C(F)(F)F)nc2c(Cl)cc(Cl)cc12 [Example 1048] and give its recorded IC50. 11.5

Consider the molecule COc1cccc(Cn2nc(C)c(NC(=O)c3cc(C(F)(F)F)nc4c(Cl)cc(Cl)cc34)c2C)c1 [Example 67] and give its recorded IC50. 146

Consider the molecule COC(=O)c1coc(Cn2nc(C(F)(F)F)c(NC(=O)c3cc(C(N)=O)nc4cc(F)c(Cl)cc34)c2C)n1 [Example 1682] and give its recorded IC50. 36.7

Consider the molecule Cc1c(NC(=O)c2cc(C(N)=O)nc3cccc(F)c23)c(C(F)(F)F)nn1Cc1cccc(OC(F)(F)F)c1 [Example 1584] and give its recorded IC50. 544
